Listed below: GI50 values for each entry.
System: HCT-116
Assay: NCI tumour cell line growth inhibition, 48 h
The source made the active and inactive calls. Rule as the data show it: active = GI50 up to about 1.1 µM and inactive = higher.

[
  {
    "COMPOUND": "CCCCCCCCCCCCCCCCCCNc1ccn(C2OC(CO)C(OP(=O)(O)OCC(O)COP(=O)(O)OCC3OC(n4cc(F)c(NCCCCCCCCCCCCCCCCCC)nc4=O)CC3O)C2O)c(=O)n1 (centres undefined)",
    "SYSTEM NAME": "HCT-116",
    "MEASURE": "GI50",
    "RECORDED VALUE": "> 50 µM (inactive)"
  },
  {
    "COMPOUND": "COc1cc2c(cc1OC)C(=O)C1(C2)[C@H](c2ccccc2)C2C(=O)c3cc(OC)c(OC)cc3C2[C@H]1c1ccccc1 (some centres undefined)",
    "SYSTEM NAME": "HCT-116",
    "MEASURE": "GI50",
    "RECORDED VALUE": "> 100 µM (inactive)"
  },
  {
    "COMPOUND": "c1ncc(C23C4C5C6C4C2C6C53)[nH]1 (centres undefined)",
    "SYSTEM NAME": "HCT-116",
    "MEASURE": "GI50",
    "RECORDED VALUE": "> 100 µM (inactive)"
  },
  {
    "COMPOUND": "O=C1C(=Cc2ccccc2O)N=C(c2ccccc2)N1n1c(-c2ccccc2)nc2ccccc2c1=O",
    "SYSTEM NAME": "HCT-116",
    "MEASURE": "GI50",
    "RECORDED VALUE": "32.3 µM (inactive)"
  },
  {
    "COMPOUND": "O=C(Cc1nc2ccccc2s1)C(=O)Nc1ccc(Cl)cc1Cl",
    "SYSTEM NAME": "HCT-116",
    "MEASURE": "GI50",
    "RECORDED VALUE": "> 100 µM (inactive)"
  },
  {
    "COMPOUND": "Cc1ccc(S(=O)(=O)CN2C(=O)C(c3ccccc3)(c3ccccc3)C23OC(c2ccc(Cl)cc2)=CC3=O)cc1 (centres undefined)",
    "SYSTEM NAME": "HCT-116",
    "MEASURE": "GI50",
    "RECORDED VALUE": "> 10 µM (inactive)"
  },
  {
    "COMPOUND": "C/C(=N\\Nc1cc(CN2CCCC2)c(-c2ccc(Cl)cc2)nn1)C(=O)O",
    "SYSTEM NAME": "HCT-116",
    "MEASURE": "GI50",
    "RECORDED VALUE": "> 100 µM (inactive)"
  },
  {
    "COMPOUND": "COc1cc2c(cc1C)NC(=O)/C2=C/c1c(Cl)n(-c2ccccc2)c2ccccc12",
    "SYSTEM NAME": "HCT-116",
    "MEASURE": "GI50",
    "RECORDED VALUE": "13.4 µM (inactive)"
  }
]

Below: the item to evaluate.
Challenge: Request - read-out GI50 | tested on HCT-116 | compound O=C1CCN2C(=Nc3cccc4cccc2c34)N1
Response given: > 100 µM (inactive)

----------
System: T47D
Assay: NCI tumour cell line growth inhibition, 48 h
The source made the active and inactive calls. Rule as the data show it: active = GI50 up to about 1.1 µM and inactive = higher.
Response enum: active, inactive

Sample answers from the record:
[
  {
    "MOLECULE": "Cn1c2ccccc2c(=O)c2cccc(C(=O)NCC(=O)O)c21",
    "QUALITATIVE LABEL": "inactive"
  },
  {
    "MOLECULE": "CC[C@@]1(O)C(=O)OCc2c1cc1n(c2=O)Cc2c-1nc1ccc(O)cc1c2[Si](C)(C)C(C)(C)C",
    "QUALITATIVE LABEL": "active"
  }
]

Challenge: For this molecule, state the assay outcome: CC(C)CC1c2[nH]c3ccccc3c2C[C@H]2C(=O)NC(CCC(=O)OC(C)(C)C)C(=O)N12 (some centres undefined)
Response given: inactive

Challenge: Next: CCCC(=O)Nc1cc2c3c(c1)CCCN3CCC2
Response given: inactive

Challenge: Next: O=c1c(C(c2ccc(/C=C/c3ccccc3)cc2)c2c(O)oc3ccccc3c2=O)c(O)oc2ccccc12
Response given: inactive

Challenge: Next: CC(C)=CCOc1cc(NC(=S)c2ccsc2C)ccc1Cl
Response given: inactive

Challenge: Next: Nc1ccc(Oc2ccc(C34CC5CC(C3)CC(c3ccc(Oc6ccc(N)cc6)cc3)(C5)C4)cc2)cc1
Response given: inactive

Challenge: Next: O=C(O)CCC(NC(=O)c1ccc(Oc2nc3ccccc3nc2-c2ccccc2)cc1)C(=O)O (centres undefined)
Response given: inactive

Challenge: Next: N#C[C@H](c1ccccn1)c1nc2ccccc2nc1Cl
Response given: inactive

----------
Tested on: UO-31
Assay: NCI tumour cell line growth inhibition, 48 h
Calls of active or inactive are those of the source. Rule as the data show it: active = GI50 up to about 1.1 µM and inactive = higher.
Response enum: active, inactive

Challenge: For this compound, state the assay outcome: CCOC(=O)c1nc2cc(Cl)ccc2[nH]c1=O
Response given: inactive

Challenge: Next: CC(=O)OC1C(CCl)OC(N=[N+]=[N-])C(OC(C)=O)C1OC(C)=O (stereo not drawn)
Response given: inactive

Challenge: Next: Cc1nc(N)sc1C(=O)/C=C/c1ccc(/C=C/C(=O)c2sc(NC(=O)CCCCCCCCC(=O)Nc3nc(C)c(C(=O)/C=C/c4ccc(/C=C/C(=O)c5sc(N)nc5C)cc4)s3)nc2C)cc1
Response given: inactive

Challenge: Next: CCOC(=O)CC(NCc1ccc(/N=C/c2nc3ccc(C(F)(F)F)cc3nc2-c2ccccc2)cc1)C(=O)OCC (stereo not drawn)
Response given: inactive

Challenge: Next: O=S(=O)(c1ccc(Br)cc1)N1CCN(S(=O)(=O)c2ccc(Br)cc2)CC1
Response given: inactive

Challenge: Next: CCCCNC1=C(C(=O)OCC)C(=O)CO1
Response given: inactive

Challenge: Next: O=C1C[C@H](CCC(=O)OCc2ccccc2)NC(=O)C[C@H](CCC(=O)OCc2ccccc2)NC(=O)C[C@H](CCC(=O)OCc2ccccc2)N1
Response given: inactive

Challenge: Next: C[N+](C)(C)/C=N\c1cccc2c1CCCC2
Response given: inactive

Challenge: Next: COC12OC3(C4OC41)C(C(=O)O[C@H]3CO[Si](C)(C)C(C)(C)C)C2C(=O)Oc1ccccc1 (stereo partly drawn)
Response given: inactive

Challenge: Next: O=C1CCCC2=C1CC1=C(CCCC1=O)N2c1cccc([N+](=O)[O-])c1
Response given: inactive

Challenge: Next: C=C1CC(OC)(C(OC)C(=O)N[C@H]2OCO[C@H]3C2O[C@H](C[C@@H](COC)OC)C(C)(C)C3OC)O[C@H](C)[C@@H]1C (stereo partly drawn)
Response given: active

Challenge: Next: CCCc1c(O)nc2ccccc2c1O
Response given: inactive

Challenge: Next: Clc1ccc(CNc2nc3ccccc3nc2-c2cccs2)c(Cl)c1
Response given: inactive

----------
Test system: OVCAR-8
Assay: NCI tumour cell line growth inhibition, 48 h
Activity calls are given as the source filed them. Cut-off read from the data, not from the text of the source: active = GI50 up to about 1.1 µM and inactive = higher.
Listed below: GI50 values for each entry.

Consider the following illustrative entries.
[
  {
    "COMPOUND": "Cn1cc2ccccc2c1-c1nc(F)nc(Oc2ccc3c(c2)CC[C@@H]2C3CC[C@@]3(C)C2C[C@H](O)[C@@H]3O)n1 (stereo not given in full)",
    "GI50": "15.8 µM (inactive)"
  },
  {
    "COMPOUND": "C[C@@H]1C(=O)O[C@H]1[C@H](O)CO",
    "GI50": "> 100 µM (inactive)"
  },
  {
    "COMPOUND": "COC(=O)C(=O)C(C(=O)C(=O)Nc1cccc(C(C)=O)c1)c1nc2ccc([N+](=O)[O-])cc2nc1O (stereo not given)",
    "GI50": "> 100 µM (inactive)"
  },
  {
    "COMPOUND": "COc1c(Cl)cc(NC(=S)C#N)cc1Cl",
    "GI50": "28.4 µM (inactive)"
  }
]

Challenge: Using the record for CCCC(=O)Nc1cc2c3c(c1)CCCN3CCC2 , report its GI50.
Response given: > 10 µM (inactive)

----------
System: MOLT-4
Experiment: NCI tumour cell line growth inhibition, 48 h
The source made the active and inactive calls. Rule as the data show it: active = GI50 up to about 1.1 µM and inactive = higher.
MEASURE: GI50

[
  {
    "COMPOUND": "[O-][S+]1c2ccccc2N=C(c2ccc3ccccc3c2)CC1c1ccccc1F (stereo unspecified)",
    "GI50": "48.2 µM (inactive)"
  },
  {
    "COMPOUND": "O=C(O)CCC1C(=O)C2CCN1CC2 (stereo unspecified)",
    "GI50": "> 100 µM (inactive)"
  }
]

Challenge: Using the record for COC(=O)C1(Cc2ccc3c(c2)CCC3)Cc2ccc3c(c2C1)CCC3 (stereo unspecified) , report its GI50.
Response given: 43.3 µM (inactive)

Challenge: Next: O=C(O)CC(Sc1ccccc1)c1ccccc1 (stereo unspecified)
Response given: > 100 µM (inactive)

Challenge: Next: O=S1(=O)CSc2ccc3ccccc3c2-c2c1ccc1ccccc21
Response given: > 100 µM (inactive)

Challenge: Next: O=C1C2C3SC(c4cc5ccccc5cc43)C2C(=O)N1c1ccccc1 (stereo unspecified)
Response given: > 100 µM (inactive)

Challenge: Next: N/C(=N\c1ccc(Cl)cc1)NS(=O)(=O)c1ccc(S(=O)(=O)c2ccccc2)s1
Response given: 18 µM (inactive)

Challenge: Next: COC(=O)c1cc(O)nc(O)n1
Response given: > 100 µM (inactive)

Challenge: Next: O=CC1OC(=O)c2cc(O)c(O)c(O)c2-c2c(cc(O)c(O)c2O)C(=O)OC1C1OC(=O)c2cc(O)c(O)c(O)c2-c2c(O)c(O)c3oc(=O)c4c(c(O)c(O)c5oc(=O)c2c3c54)-c2c(cc(O)c(O)c2O)C(=O)OCC1O (stereo unspecified)
Response given: 26.1 µM (inactive)

Challenge: Next: COc1ccc(C(=O)c2sc(N(C)C)nc2-c2ccccc2)cc1
Response given: 81.3 µM (inactive)

Challenge: Next: O=C1/C(=C/c2ccccc2S)N=C(c2ccccc2)N1c1ccc2c(c1)Sc1cc(N3C(=O)/C(=C/c4ccccc4S)N=C3c3ccccc3)ccc1N2
Response given: 19.6 µM (inactive)

Challenge: Next: Cc1cc(NS(=O)(=O)c2ccc(NC(=O)c3ccc(Cl)c4c(Nc5ccc(S(=O)(=O)N=C(N)N)cc5)c5ccccc5nc34)cc2)no1
Response given: 15.2 µM (inactive)
